- settings: basic group
Could you please classify the records by pKa using these ranges: low (below 4), intermediate (4 to below 8), high (8 or more)

compound	qualitative.label
Nc1ccc2cc3c(ccc4ccccc43)nc2c1	intermediate
C=C(C)C(=O)NC(C)(C)CCN(C)C	high
COc1cnccc1C=O	intermediate
CCC(N)CO (stereo not given)	high

Query string: Lab note: which band did N#Cc1ccc(N)cc1 land in?
Result string: low

Query string: Lab note: which band did Cn1cnc2[nH]c(=O)[nH]c(=S)c21 land in?
Result string: low

Query string: Lab note: which band did Cc1cc(N)nc(N)n1 land in?
Result string: intermediate

Query string: Lab note: which band did CCNc1ccccc1 land in?
Result string: intermediate

Query string: Lab note: which band did O=C([O-])/C=C\c1c[nH]cn1 land in?
Result string: intermediate

Query string: Lab note: which band did CCCCCc1cccnn1 land in?
Result string: low

Query string: Lab note: which band did CCC(O)CN(CC(C)O)C(C)(C)C (stereo not given) land in?
Result string: high

Query string: Lab note: which band did CCCCCCCCN(CCO)CC(O)CC (stereo not given) land in?
Result string: high

Query string: Lab note: which band did CCN(CC)CCS(=O)(=O)c1ccc(OC)c(OC)c1OC land in?
Result string: intermediate

Query string: Lab note: which band did c1ncc2[nH]cnc2n1 land in?
Result string: low

Query string: Lab note: which band did Nc1ccc2[nH+]cccc2c1 land in?
Result string: low

Query string: Lab note: which band did Cn1c(=O)c2[nH]c[nH+]c2n(C)c1=O land in?
Result string: low

Query string: Lab note: which band did COc1cc2c(cc1OC)C13CCN4C1CC1C(=CCOC5CC(=O)N2C3C51)[C@@H]4S(=O)(=O)[O-] (stereo not given in full) land in?
Result string: low

Query string: Lab note: which band did CN1C[C@@H](C(=O)[O-])C[C@@]2(O)c3cccc4[nH]cc(c34)C[C@@H]12 land in?
Result string: high
